PROTOCOL SUMMARY: Fluorescence spectroscopy (emission, relative quantum yield, brightness)
Assay type: physicochemical
CONDITION CONTEXT: product of quantum yield and molar absorptivity, ICG = 1
MEASURE: ΦB, relative brightness referenced to ICG
Keep the answer to the number alone.

Example entries begin here.
CC1(C)C(=CC=C2CCCC(C=CC3=[N+](CCCCS(=O)(=O)[O-])c4ccc(S(=O)(=O)[O-])cc4C3(C)C)=C2c2ccc(C(=O)O)cc2)N(CCCCS(=O)(=O)[O-])c2ccc(S(=O)(=O)[O-])cc21.[Na+].[Na+].[Na+]: 1.4
CC1(C)C(=CC=C2CCCC(C=CC3=[N+](CCCCS(=O)(=O)[O-])c4ccc5ccccc5c4C3(C)C)=C2c2ccc(C(=O)O)cc2)N(CCCCS(=O)(=O)[O-])c2ccc3ccccc3c21.[Na+]: 1.4
CC1(C)C(/C=C/C=C/C=C/C=C2\N(CCCCS(=O)(=O)O)c3ccc4ccccc4c3C2(C)C)=[N+](CCCCS(=O)(=O)[O-])c2ccc3ccccc3c21 [ICG, indocyanine green, reference compound]: 1

Now, please, on to the next compound.
Lookup: Look up and report measured ΦB, relative brightness referenced to ICG for this entry: CC1(C)C(=CC=C2CCCC(C=CC3=[N+](CCCS(=O)(=O)[O-])c4ccc5ccccc5c4C3(C)C)=C2c2ccc(C(=O)O)cc2)N(CCCS(=O)(=O)[O-])c2ccc3ccccc3c21.[Na+]
Found: 1.3

* * *

Quick reference for λmax, em among some molecules
PROTOCOL SUMMARY: Fluorescence spectroscopy (emission, relative quantum yield, brightness)
Assay type: physicochemical
CONDITION CONTEXT: in methanol (Table 1)
For clarity, give the value followed by its unit.

Answered examples (3):
CC1(C)C(=CC=C2CCCC(C=CC3=[N+](CCCCS(=O)(=O)[O-])c4ccc5ccccc5c4C3(C)C)=C2c2ccc(C(=O)O)cc2)N(CCCCS(=O)(=O)[O-])c2ccc3ccccc3c21.[Na+]: 811 nm
CC1(C)C(=CC=C2CCCC(C=CC3=[N+](CCCCS(=O)(=O)[O-])c4ccc(S(=O)(=O)[O-])cc4C3(C)C)=C2c2ccc(C(=O)O)cc2)N(CCCCS(=O)(=O)[O-])c2ccc(S(=O)(=O)[O-])cc21.[Na+].[Na+].[Na+]: 785 nm
CC1(C)C(/C=C/C=C/C=C/C=C2\N(CCCCS(=O)(=O)O)c3ccc4ccccc4c3C2(C)C)=[N+](CCCCS(=O)(=O)[O-])c2ccc3ccccc3c21 [ICG, indocyanine green, reference compound]: 807 nm

We next turn to a different molecule, shown below.
Lookup: State, in one line, measured λmax, em of CC1(C)C(=CC=C2CCCC(C=CC3=[N+](CCCS(=O)(=O)[O-])c4ccc5ccccc5c4C3(C)C)=C2c2ccc(C(=O)O)cc2)N(CCCS(=O)(=O)[O-])c2ccc3ccccc3c21.[Na+]
Found: 811 nm

* * *

Catalogue of λmax, abs readings, one per entry.
PROTOCOL SUMMARY: UV-Vis absorption spectroscopy
Assay type: physicochemical
Field: numeric (nm). Do not append units.

CC1(C)C(/C=C/C=C/C=C/C=C2\N(CCCCS(=O)(=O)O)c3ccc4ccccc4c3C2(C)C)=[N+](CCCCS(=O)(=O)[O-])c2ccc3ccccc3c21 [ICG, indocyanine green, reference compound]: 785
CC1(C)C(=CC=C2CCCC(C=CC3=[N+](CCCS(=O)(=O)[O-])c4ccc5ccccc5c4C3(C)C)=C2c2ccc(C(=O)O)cc2)N(CCCS(=O)(=O)[O-])c2ccc3ccccc3c21.[Na+]: 800
CC1(C)C(=CC=C2CCCC(C=CC3=[N+](CCCCS(=O)(=O)[O-])c4ccc(S(=O)(=O)[O-])cc4C3(C)C)=C2c2ccc(C(=O)O)cc2)N(CCCCS(=O)(=O)[O-])c2ccc(S(=O)(=O)[O-])cc21.[Na+].[Na+].[Na+]: 770

Let us move to another entry and its λmax, abs.
Lookup: Look up and state reported λmax, abs for CC1(C)C(=CC=C2CCCC(C=CC3=[N+](CCCCS(=O)(=O)[O-])c4ccc5ccccc5c4C3(C)C)=C2c2ccc(C(=O)O)cc2)N(CCCCS(=O)(=O)[O-])c2ccc3ccccc3c21.[Na+]
Found: 800
